Where do these numbers come from? They come from the supplement of paper PMC8728848.

Target: Neu5Ac(a2-8)Neu5Ac(a2-8)Neu5Ac
Experiment: glycan array binding signal (z-score within array); higher = stronger binding
Conditions: glycan notation: IUPAC condensed, linker removed
The sample as a whole holds a higher share of the strongest signals than the screen did.
observation-type: glycan array binding signal (z-score)
Reply with just the number.

Lookup: Name the recorded glycan array binding signal (z-score) of the binder listed here: MPA (Maclura pomifera) (protein) GVTFDDGAYTGIREINFEYNSETAIGGLRVTYDLNGMPFVAEDHKSFITGFKPVKISLEFPSEYIVEVSGYVGKVEGYTVIRSLTFKTNKQTYGPYGVTNGTPFSLPIENGLIVGFKGSIGYWLDYFSIYLSLNGPNGKSQSIIVGPWGDRVTN
Found: -0.244

Lookup: Name the recorded glycan array binding signal (z-score) of the binder listed here: DC-ASGPR Long (Homo sapiens) (protein) MTRTYENFQYLENKVKVQGFKNGPLPLQSLLQRLRSGPCHLLLSLGLGLLLLVIICVVGFQNSKFQRDLVTLRTDFSNFTSNTVAEIQALTSQGSSLEETIASLKAEVEGFKQERQAGVSELQEHTTQKAHLGHCPHCPSVCVPVHSEMLLRVQQLVQDLKKLTCQVATLNNNASTEGTCCPVNWVEHQDSCYWFSHSGMSWAEAEKYCQLKNAHLVVINSREEQNFVQKYLGSAYTWMGLSDPEGAWKWVDGTDYATGFQNWKPGQPDDWQGHGLGGGEDCAHFHPDGGWNDDVCQRPYHWVCEAGLGQTSQESH
Found: -0.221
